# System: MDA-MB-468 breast
# protocol_description: NCI tumour cell line growth inhibition, 48 h; in the data active = GI50 below about 0.43 µM; inactive = the rest
*1 amine or outer side, *2 acyl side, *3 side chain or, on linkers, in order; H or OH if unused. Where a SMILES comes first, the peptide text is derived from it. Bridges are numbered along the chain shown (N, C = ends). Roman numbers before positions name the chains, in order. [ ]: non-standard residue; d: D form. Actinocin(9to1) = Cc1c2oc3c(C)ccc(C(=O)[*:1])c3nc-2c(C(=O)[*:2])c(N)c1=O; NMeV = CN[CH](C(=O)O)C(C)C; Sar = CNCC(=O)O
Possible outcomes: active, inactive

{"columns": ["molecule", "class"],
 "data": [
  ["C=C1C(=O)O[C@H]2[C@H]1CC/C(Cn1cc(Cc3c[nH]c4ccccc34)nn1)=C\\CC[C@@]1(C)O[C@@H]21", "inactive"],
  ["c1cc(CN2CCCNCCNCCCNCC2)ccc1CN1CCCNCCNCCCNCC1", "inactive"],
  ["C=C1C(=O)O[C@H]2[C@H]1CC/C(COC(=O)c1cn(C)c3ccccc13)=C\\CC[C@@]1(C)O[C@@H]21", "inactive"],
  ["O=C(Nc1ccc2ncnc(Nc3ccc(Oc4cccc(F)c4)c(Cl)c3)c2c1)c1ccc(CN2CCOCC2)cc1", "inactive"],
  ["C[C@]12CC[C@@H]3c4ccc(O)cc4CC[C@H]3[C@@H]1CC[C@@H]2NS(=O)(=O)c1cccc(Cl)c1", "inactive"],
  ["O=C1NCN(c2ccccc2)C12CCN(CCCC(c1ccc(F)cc1)c1ccc(F)cc1)CC2", "inactive"],
  ["CC(CN(C)C)S(=O)(=O)c1ccc(-c2cnc(N)c(C(=O)Nc3ccccc3)n2)cc1 (centres undefined)", "inactive"],
  ["CN(C)C(=S)/N=c1\\ssc(=S)n1Cc1cccs1", "inactive"],
  ["CCN1C(=O)N(CC)C2C1NN=c1s/c(=C\\c3cccs3)c(=O)n12 (centres undefined)", "active"],
  ["CCOc1ccccc1[C@H]1C(C(=O)c2ccc(Cl)cc2)C2(N[C@@H]1c1ccccc1)C(=O)Nc1ccccc12 (some centres undefined)", "inactive"],
  ["Cc1c2oc3c(C)ccc(C(=O)OC(C)C4NC(=O)C(C(C)C)N(C)C(=O)CN(C)C(=O)C5CCCN5C(=O)C(C(C)C)NC4=O)c3nc-2c(C(=O)OC(C)C2NC(=O)C(C(C)C)N(C)C(=O)CN(C)C(=O)C3CCCN3C(=O)C(C(C)C)NC2=O)c(N)c1=O (centres undefined) (I: cyclo([Sar][NMeV]TVP) / II: cyclo([Sar][NMeV]TVP); linker I:3-II:3 via Actinocin(9to1); configuration not given here)", "active"],
  ["N#Cc1cnc2ccc(-c3cnc4n[nH]nc4c3)cc2c1N1CCc2cc(F)c(Cl)cc21", "inactive"],
  ["Oc1[nH]c(N=C2N=c3ccccc3=N2)c2ccccc12", "inactive"],
  ["COc1ccc(C(C#N)=C2C=CC(=NO)C=C2)cc1", "inactive"]
]}

====

# Test system: U251 CNS
Let's look at some compounds and their measured GI50.

{"columns": ["compound", "GI50"],
 "data": [
  ["COC(=O)c1ccc(-n2cc(CCCN(CCNc3ccnc4cc(Cl)ccc34)C(=O)CCC(=O)O[C@@H]3O[C@@H]4OC5(C)CC[C@H]6[C@H](C)CC[C@@H]([C@H]3C)[C@@]46OO5)nn2)cc1", "0.805 µM"],
  ["CN(C)c1ccnc(CNCCSC2(c3ccc(C(F)(F)F)cc3)c3ccccc3C=Cc3ccccc32)c1", "1.11 µM"],
  ["COc1ccc2[nH]c(=O)c(CSc3nccc(-c4ccc(OC)c(OC)c4)n3)cc2c1", "22.4 µM"],
  ["CCOc1ccccc1[C@H]1C(C(=O)c2ccc(Cl)cc2)C2(N[C@@H]1c1ccccc1)C(=O)Nc1ccccc12 (some centres undefined)", "13 µM"]
]}
